- Tested on: MOLM-13
- METHOD_SUMMARY: Antiproliferative activity against human MOLM13 cells after 48 hrs by CellTiter-Glo assay
- Format: functional, cell-based
- TEST_CONDITIONS: MOLM-13, 48 h
RESULT_TYPE: IC50
Could you kindly put the unit after your number?

What value of measured IC50 is listed for C1=N/C2=N/c3ccc(OCCN4CCCC4)c(c3)COC/C=C/COCc3cccc(c3)C(=C1)N2 ?
47 nM

----------
- TESTED_TARGET: Receptor-type tyrosine-protein kinase FLT3 (Homo sapiens)
- Sequence (P36888 whole entry): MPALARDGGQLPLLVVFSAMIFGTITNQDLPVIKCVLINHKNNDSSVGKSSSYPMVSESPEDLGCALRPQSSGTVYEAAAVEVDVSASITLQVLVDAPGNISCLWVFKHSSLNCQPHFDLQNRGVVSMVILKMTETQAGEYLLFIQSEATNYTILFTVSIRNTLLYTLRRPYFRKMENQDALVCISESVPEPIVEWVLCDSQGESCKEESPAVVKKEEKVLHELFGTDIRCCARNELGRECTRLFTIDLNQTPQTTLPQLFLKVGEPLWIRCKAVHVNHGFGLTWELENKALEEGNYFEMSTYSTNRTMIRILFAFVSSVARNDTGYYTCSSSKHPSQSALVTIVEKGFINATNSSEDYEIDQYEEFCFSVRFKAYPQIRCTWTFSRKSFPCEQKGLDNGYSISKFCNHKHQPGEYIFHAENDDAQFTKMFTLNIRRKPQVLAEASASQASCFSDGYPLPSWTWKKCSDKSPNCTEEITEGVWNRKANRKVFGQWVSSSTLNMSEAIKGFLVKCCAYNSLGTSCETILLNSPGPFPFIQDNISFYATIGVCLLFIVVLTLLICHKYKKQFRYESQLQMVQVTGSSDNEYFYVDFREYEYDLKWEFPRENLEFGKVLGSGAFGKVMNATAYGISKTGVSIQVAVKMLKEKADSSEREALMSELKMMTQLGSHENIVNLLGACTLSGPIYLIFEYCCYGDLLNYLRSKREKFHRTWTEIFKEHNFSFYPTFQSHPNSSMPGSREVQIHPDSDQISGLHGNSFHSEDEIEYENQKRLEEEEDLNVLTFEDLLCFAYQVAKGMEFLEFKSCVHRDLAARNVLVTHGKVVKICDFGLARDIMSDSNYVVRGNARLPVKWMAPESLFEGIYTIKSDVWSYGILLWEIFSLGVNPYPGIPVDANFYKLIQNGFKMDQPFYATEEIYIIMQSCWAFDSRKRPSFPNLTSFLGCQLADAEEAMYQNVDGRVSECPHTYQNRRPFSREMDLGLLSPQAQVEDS
- METHOD_SUMMARY: Inhibition of FLT3 (unknown origin) phosphorylation by [gamma-33P]-ATP assay
RESULT_TYPE: IC50 (nM)
Please state the figure in nM; there is no need to write the unit.

What value of measured IC50 is listed for CCNc1cc(O)c2c(c1)/C=C/C[C@H](O)[C@H](O)C(=O)/C=C\[C@@H](C)[C@H](C)OC2=O [E-6201] ?
5

----------
- TESTED_TARGET: Dual specificity mitogen-activated protein kinase kinase 1 (Homo sapiens, UniProt Q02750)
- Sequence (Q02750 whole entry): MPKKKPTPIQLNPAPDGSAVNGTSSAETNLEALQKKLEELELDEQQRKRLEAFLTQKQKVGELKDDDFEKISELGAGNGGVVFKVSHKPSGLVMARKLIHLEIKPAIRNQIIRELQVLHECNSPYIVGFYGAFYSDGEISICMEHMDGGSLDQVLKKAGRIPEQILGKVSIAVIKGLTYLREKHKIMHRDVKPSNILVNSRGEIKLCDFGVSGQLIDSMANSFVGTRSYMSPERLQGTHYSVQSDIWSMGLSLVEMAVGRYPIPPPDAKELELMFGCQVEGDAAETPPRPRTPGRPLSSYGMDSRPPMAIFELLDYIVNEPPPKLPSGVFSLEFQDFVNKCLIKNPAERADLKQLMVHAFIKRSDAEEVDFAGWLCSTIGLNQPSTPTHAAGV
- METHOD_SUMMARY: Inhibition of MEK1 (unknown origin) phosphorylation by [gamma-33P]-ATP assay
RESULT_TYPE: pIC50
// returns pIC50 (minus log10 of molar concentration), number only

What value of measured pIC50 is listed for CCNc1cc(O)c2c(c1)/C=C/C[C@H](O)[C@H](O)C(=O)/C=C\[C@@H](C)[C@H](C)OC2=O ?
7.30

Source of measurements: ChEMBL document CHEMBL4359824
